system: K4 kissing-loop RNA reporter; test: apparent KD of K4 kissing-loop reporter; higher = weaker reporter binding; details: Eterna round: R107; input ligand: arginine 13.2 mM
The sequences listed here are annotated with their apparent KD of K4 kissing-loop reporter.
endpoint.name: apparent KD of K4 kissing-loop reporter (nM)

{"columns": ["entry.sequence", "endpoint.name", "unit", "experimental.result"],
 "data": [
  ["CCAACAACGAGUGAUGUUCGUUGAUCAGAAGGAGCGUCAAUAAUGACAGGUAGGUCGCUGAUAAUUGGAAAUAGGGCAAUAGCUU [Same State Arginine A GF12]", "apparent KD of K4 kissing-loop reporter", "nM", 113],
  ["CUUGAUGGAAACAUCGAGUAUUUCACUGAUACCAGUAUCGAUAGAUACCCUUGGCAGCAGGAUCAGUGUUUACGAGUGAUGUUCG [Ex Theophylline A K4 9]", "apparent KD of K4 kissing-loop reporter", "nM", 408],
  ["AAUUUAUUAACUGAUACCAGACUUUAAUUUAUAUAUAUGUCUAGUGAUGUUAAACAUAUUGUCCCUUGGCAGCAGUAUUUAUUAA [JR_SSTheophyB_Sub020]", "apparent KD of K4 kissing-loop reporter", "nM", 399],
  ["CGUUCCUCUGUCGAUACCAGCUUCAGUUGGCGGCCAGUGAUGUUGGUAUCGCCGAUGCCAAGCCCUUGGCAGCGACAGGAGACCC [Usleanza]", "apparent KD of K4 kissing-loop reporter", "nM", 165],
  ["AAAAUAAGCCAGUGAUGUUGGUAUCCAGAUACCAGCGACGAAAGUCGCCCUUGGCAGCUGUGGACGUACAAAAUAAGUACGUCCU", "apparent KD of K4 kissing-loop reporter", "nM", 107],
  ["AAGGUAUCUAGAUGCUAGCAACAACUAGAUACCAGCAUCGAAAGAUGCCCUUGGCAGCUAGCAGUGAUGUUGCUAGCAAUAAGAA [Design4]", "apparent KD of K4 kissing-loop reporter", "nM", 130]
]}

====

tested on: K4 kissing-loop RNA reporter; assay: apparent KD of K4 kissing-loop reporter; higher = weaker reporter binding; details: Eterna round: R107; input ligand: theophylline 20 uM;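 further: bound reporter read as fluorescence of individual clusters on recovered sequencing chips by microscopy, with normalized cluster intensities fitted with a binding model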
Definition: the class of an entry is the range in low: < 200 nM; moderate: ≥ 200 nM and < 300 nM; high: ≥ 300 nM that contains its apparent KD of K4 kissing-loop reporter.

{"columns": ["entry.sequence", "cat"],
 "data": [
  ["UGUCAUUGGUCGGCCGCCACUAGGACCGGGUUUUACCUAGUGAUGUUAGUAUGAACGGCCGCCACUAGGACCGGGACCGAUGACU [KL-SSTryp-B25 #DoubleAptamer]", "high"],
  ["UUUUUCGCGUUUGAUACCAGCAGAGUUGUUCGUGUCUGGAGCGUGAGUGAUGUUCAUGUCUGCCCUUGGCAGCAAACGGGAGAAG [KL-XTheo-B14]", "low"],
  ["AGACGCCAGUCGGCCGCCACUCACAGCAGUGAUGUUGCUGAAAAUCUAGAAGAGUGAUGUUCUUAGAGGACCGGGACUCCAGUCG [Same State Tryptophan B GF 6]", "low"],
  ["UGGUUUAACUGAAGGAGCGGCAAUUGAUAAGUAAAUAUAGUGAUGUUAUAUAAGAUAGAGAGCCAGGUAGGUCGCAGAGGUAUUU [ExArgB.O]", "low"],
  ["UGUACCGAAUCAGGAUAUGUCGUCGAAAGACGAAAUGGAGUGAUGUUCCUUAAACUGCGAAAGCAGACAGAAGGGAUUUGGUACU [FmnBS 29 A9+U77]", "high"],
  ["UUAUCAUCAGCGGCCGCCACUGCAAAUUGGAGUGAUGUUCCAAGCGUGGAUAUUGAAAUUACUAGUAGGACCGGGUUGAUGAAUU [AK 2 Ex Trypt B]", "low"],
  ["GCACGUACCCGAAGGAGCGUGCAAGAAUCGUAGUGAUGUUACGGAGAGUGUCACGCCGUCGCACAGGUAGGUCGCGGGUACGUGC", "low"],
  ["AGUUAUGUUGCGGCCGCCACUGCGCGAGUGAUGUUCGUGGCAUAUAUAAUGUUAUAUAUGCAUCACAGGACCGGGCGGCAUAGCG [Same State - Tryptophan B]", "high"],
  ["CGCGCGCGCGCGCGCGCGCGCGAAAAUGAUACCAGUAUAUAAGAAUACCCUUGGCAGCAUAAGAAAGAUAUAGUGAUGUUGUAUA [SSTheophA.A]", "high"],
  ["GGAUAGGAUAGAGGAUAUGGUUUAUGCAGGAAUAACUUAUUGUGUAAAUCCAUAGGGAGUGAUGUUCCAGAAGGCUGUCCUAUCG [MatMod 14 - Jieux - Exclusion - FMN B]", "moderate"],
  ["AAGUGAUGUUGUAGUGAUGUUGUGAUGUUGCAGGAUAUAUAGUGAUGUAGAAGGGUAAGUACUUAUUUUUUUUUUGAGUGAUGUU [vcbczrmullin]", "low"],
  ["GGACGACAGUCGGCCGCCACUCACAGCAGCCAGUGAUGUUGGAUUGUAGCGGAGUGAUGUUUCGCGAGGACCGGGACUGCAGUCC [Same State Tryptophan B GF 14]", "moderate"],
  ["GGCCGAAGAGAAGGAUAUGGUUUCACGCGUCGUUAGUGAUGUUAAUGCGCAUGCCUUAGUAUAGAGCCAGAAGGUCUGGUCAGAA [theeternabot_sameState_KL_FMN_B_34]", "moderate"],
  ["GUCCAAACACAGUGAUGUUGUGAAUAUGAAGGAGCGGACGAAAGUCCAGGUAGGUCGCAUAAAGGACACCUACGAAAAGUAGGAA [#SwitchBubble 5 #K4Early]", "moderate"],
  ["AGGCACGAGCAAGGAUAUUGAGUAGAGUGAUGUUCUGCCUGGGUUGGCUCGCAAGAGCCUUCUCAGCGAGAAGGUGCUCGUGCCU [#2 Same State - FMN A Attempt #25 (HarryS)]", "high"],
  ["UUAAUAUUGUCGGCCGCCACUGUUUAGUAUUUUGUAUAAUCUAUUUCAAAGUGAUGUUUUGAUUCCAGGACCGGGACAUUUGAUA [JR_Nu_ExcTryptoB_Sub031]", "high"],
  ["CGUGAUGUAUGGCGGUUUGUCACUUAGGAUCAGGAUAUAUAAACAAAUAGAAGGGAUGGCGGAGUGAUGUUCCGCCGGCCGCCAU [FMN A Exl V8]", "low"],
  ["AGACUACCACACUGUCAAUAGACAGUGUACUAGGAUAUGCUGAUAAGCAGAAGGAGUGAUGUUCCGAGGUAGUCAAUAAAAUAAU [FmnAX 13 U28+G66]", "high"],
  ["UUCUUGAUGGAAACAUCGAGGAUUACUGAUACCAGUAUCGAUAGAUACCCUUGGCAGCAGAAUCAGUGAUCACGAGUGAUGUUCG [Ex Theophylline A K4 10]", "high"],
  ["CGCAAAUCGUCGGCCGCCACUGCAUUUGAACGCUAAUUGUCUCUGCGCGGAGUGAUGUUCUGUGCCAGGACCGGGACGGAUUUCG [theeternabot_exclusion_KL_Trp_B_21]", "high"]
]}

====

test system: MS2 coat protein; assay: apparent KD of MS2 coat protein; designed switch direction (-1 OFF switch, 1 ON switch): -1; higher = weaker reporter binding; details: input ligand: microRNA oligo, concentration not stated
endpoint.name: apparent KD of MS2 coat protein (nM)

{"columns": ["entry.sequence", "experimental.result"],
 "data": [
  ["GUCGUGCGGCAGUGCUGUACGAGUACAUGAGGAUCACCCAUGUAGGAUAUGGUUCGUUUUGCGUGCUAGAAGGGCGUGCGUUGA [Excl-NG3-LRO20] (Eterna round: R96, puzzle: Exclusion NG 3)", 14],
  ["UAUGUUAGCACAGGAUAUUGUUAUUUUUUUUUUCAAGAAGGGUGUACAUGAGGAUCACCCAUGUUAUGGUUUUAUCUUUUACAA [JR_ExcNG1_Sub012] (Eterna round: R96, puzzle: Exclusion NG 1)", 247],
  ["UACCUGAGGCAAAGCUUUAGGUAAACAUGAGGAUCACCCAUGUAGGAUAUGGUAGGCAAAGCUUACCAGAAGGACAUGAUAAUU [Mat - Exclusion NG 3 - Mod of JL - D35] (Eterna round: R96, puzzle: Exclusion NG 3)", 79.2],
  ["UGUUGUCGCGUAGGAUAUGAGGAUCACCCAUAUAGAGGAUAUGAAAAGAAGGCUCUGAGGAUCACCCAGAAGGACGGGACAACU [pwkr exNG2 2xF5 2xFMN.24] (Eterna round: R96, puzzle: Exclusion NG 2)", 214]
]}

====

The sequences listed here are annotated with their apparent KD of MS2 coat protein.
tested on: MS2 coat protein; assay: apparent KD of MS2 coat protein; higher = weaker reporter binding; conditions: Eterna round: R107; input ligand: theophylline 20 uM

{"columns": ["entry.sequence", "apparent KD of MS2 coat protein [nM]"],
 "data": [
  ["UUUUUCAUAGGUUAUAGUUUAGAAACUGAAGGAGCGUGGUAAUACACAGGUAGGUCGCAGAUUUUACAUGAGGAUCACCCAUGUU [JR_ExcArginiA_Sub014]", 27.3],
  ["GGUCGCCAACAUGGGUCGGUGAAAUGGGAAGGAGCGAGCGAGAGCUCAGGUAGGUCGCCCAAACAUGAGGAUCACCCAUGUAAUA [SSArg-A #28 UUU adds V2]", 113],
  ["AUUCAUAACUGAAGGAGCGUGAUAUAAAUUUUUACAUGAGGAUCACCCAUGUUUCAUAGAUCACAGGUAGGUCGCAGAUUCUCAU [JR_SSArginiB_Sub011]", 42.4]
]}

// data source = the supplement of paper PMC9170038
